Entry source: patent US9040524B2

Measured Inf. A pIC50 of individual entries
Test system: Sporothrix schenkii
Test: Antifungal activity in vitro, resazurin growth inhibition screen: Sporothrix schenkii
Type: cell-based
Settings: Sporothrix schenkii B62482

{"COMPOUND": "Clc1cc(Cl)c2c(c1)CN=C(c1ccc3c(c1)CCO3)c1cccn1-2", "Inf. A pIC50": 5.40}
{"COMPOUND": "Cl.Clc1ccc(Cl)c2c1CNC(c1ccc3c(c1)OCC3)c1cccn1-2 (stereo not drawn)", "Inf. A pIC50": "<4.19"}
{"COMPOUND": "Br.Clc1cccc2c1CNC(c1ccc3c(c1)OCO3)c1cccn1-2 (stereo not drawn)", "Inf. A pIC50": "<4.19"}
{"COMPOUND": "Clc1cccc2c1CNC(c1ccc3c(c1)OCO3)c1cccn1-2 (stereo not drawn)", "Inf. A pIC50": "<4.19"}
{"COMPOUND": "Br.Clc1cccc2c1-n1cccc1C(c1ccc3c(c1)OCO3)NC2 (stereo not drawn)", "Inf. A pIC50": "<4.19"}
{"COMPOUND": "Fc1cccc2c1CN=C(c1ccc3c(c1)CCOC3)c1cccn1-2", "Inf. A pIC50": 4.95}
{"COMPOUND": "Br.CCOc1cc2c(cc1C1NCc3c(Cl)cccc3-n3cccc31)OC(C)C2 (stereo not drawn)", "Inf. A pIC50": "<4.19"}
{"COMPOUND": "Clc1cccc2c1CN=C(c1ccc3c(c1)CCOC3)c1cccn1-2", "Inf. A pIC50": 5.26}
{"COMPOUND": "Fc1cc(F)c2c(c1)-n1cccc1C(c1ccc3c(c1)OC(F)(F)O3)=NC2", "Inf. A pIC50": 5.28}
{"COMPOUND": "FC1(F)Oc2ccc(C3=NCc4ccc(Cl)cc4-n4cccc43)cc2O1", "Inf. A pIC50": 4.85}

Would you kindly share the measured Inf. A pIC50 for Br.CCOc1cc2c(cc1C1NCc3c(Cl)cccc3-n3cccc31)CCC2 (stereo not drawn) ? <4.19

Check Cl.Clc1cc(Cl)c2c(c1)-n1cccc1C(c1ccc3c(c1)CCO3)NC2 (stereo not drawn) too. <4.19

Check Cl.O=C1CCc2ccc(C3NCc4c(Cl)cccc4-n4cccc43)cc21 (stereo not drawn) too. <4.19

Check FC1(F)CCc2cc(C3=NCc4cccc(Cl)c4-n4cccc43)ccc21 too. <4.19
